Source: patent US11401279B2

System: PD-L1 aAPC/CHO-K1 cells and Jurkat-PD-1-NFAT effector cells
Assay: Nuclear factor of activated T-cells (NFAT) assay
Type: cell-based
Details: Cricetulus griseus, CHO-K1; luminescence, 24 hours
Below, each entry is listed with its recorded EC50.
Write down the numeric answer in nM and omit the unit.

C[C@H](O)CN1CCc2c(nc(C(=O)Nc3cccc(-c4cccc(NC(=O)c5nc6c(n5C)CCN(CC57CCC(C(=O)O)(CC5)C7)C6)c4Cl)c3Cl)n2C)C1 [Example 181, reference compound] | 41
Cc1c(Nc2nc(C(F)F)nc3cc(CN4CC[C@H](O)C4)cnc23)cccc1-c1cccc(NC(=O)c2nc3c(n2C)CCN(CCC24CCC(C(=O)O)(CC2)C4)C3)c1Cl [Example 3] | 4
Cc1c(NC(=O)c2nc3c(n2C)CCN(CCC24CCC(C(=O)O)(CC2)C4)C3)cccc1-c1cccc(Nc2nc(C(F)F)nc3cc(CN4CC[C@](C)(O)C4)cnc23)c1C [Example 16] | 6
Cc1c(NC(=O)c2nc3c(n2C)CCN(CCC24CCC(C(=O)O)(CC2)C4)C3)cccc1-c1cccc(Nc2nc(C(F)F)nc3cc(CN4CC[C@@](C)(O)C4)cnc23)c1C [Example 6] | 8.2

Prompt line: What value of EC50 has been recorded for this entry: Cc1c(Nc2nc(C(F)F)nc3cc(CN4C[C@H](O)C[C@H]4C)cnc23)cccc1-c1cccc(NC(=O)c2nc3c(n2C)CCN(CCC24CCC(C(=O)O)(CC2)C4)C3)c1Cl [Example 11]
Response line: 5

---

Assay: In vivo pharmacokinetics in rats
Set-up: species or system Sprague Dawley rats
Details: male, Sprague-Dawley, plasma; rat, 1.0 mg/kg IV, cassette dosing
REPORTED PROPERTY: half-life
I'd appreciate it if you included the unit after the number.

Known half-life results, listed for orientation:
Cc1c(Nc2nc(C(F)F)nc3cc(CN4CC[C@@H](O)C4)cnc23)cccc1-c1cccc(NC(=O)c2nc3c(n2C)CCN(CCC24CCC(C(=O)O)(CC2)C4)C3)c1Cl | 4.4 h
Cc1c(-c2nc3cc(CN4CC[C@@H](O)C4)cc(C#N)c3o2)cccc1-c1cccc(NC(=O)c2nc3c(n2C)CCN(CC24CCC(C(=O)O)(CC2)C4)C3)c1Cl | 3.28 h

Prompt line: What value of half-life has been recorded for this entry: Cc1c(NC(=O)c2nc3c(n2C)CCN(CCC24CCC(C(=O)O)(CC2)C4)C3)cccc1-c1cccc(Nc2nc(C(F)F)nc3cc(CN4CC[C@@](C)(O)C4)cnc23)c1C
Response line: 4.5 h

Prompt line: What value of half-life has been recorded for this entry: Cc1c(Nc2nc(C(F)F)nc3cc(CN4CC[C@@](C)(O)C4)cnc23)cccc1-c1cccc(NC(=O)c2nc3c(n2C)CCN(CCC24CCC(C(=O)O)(CC2)C4)C3)c1Cl
Response line: 4.4 h

Prompt line: What value of half-life has been recorded for this entry: Cc1c(NC(=O)c2nc3c(n2C)CCN(CC24CCC(C(=O)O)(CC2)C4)C3)cccc1-c1cccc(NC(=O)c2nc3c(n2C)CCN(C)C3)c1Cl
Response line: 1.9 h

Prompt line: What value of half-life has been recorded for this entry: Cc1c(NC(=O)c2nc3c(n2C)CCN(CCC24CCC(C(=O)O)(CC2)C4)C3)cccc1-c1cccc(Nc2nc(C(F)F)nc3cc(CN4CC[C@@H](O)C4)cnc23)c1C
Response line: 3.9 h

Prompt line: What value of half-life has been recorded for this entry: CN1CCc2c(nc(C(=O)Nc3cccc(-c4cccc(NC(=O)c5nc6c(n5C)CCN(CC57CCC(C(=O)O)(CC5)C7)C6)c4Cl)c3Cl)n2C)C1
Response line: 3.47 h
